biological target: Tyrosine-protein kinase JAK1 (Homo sapiens); test: Binding affinity to wild-type human partial length JAK1 JH2 domain-pseudokinase expressed in bacterial expression system by active-site directed competition binding assay based Kinomescan method
Sequence (P23458 whole entry, the tested form may be a part): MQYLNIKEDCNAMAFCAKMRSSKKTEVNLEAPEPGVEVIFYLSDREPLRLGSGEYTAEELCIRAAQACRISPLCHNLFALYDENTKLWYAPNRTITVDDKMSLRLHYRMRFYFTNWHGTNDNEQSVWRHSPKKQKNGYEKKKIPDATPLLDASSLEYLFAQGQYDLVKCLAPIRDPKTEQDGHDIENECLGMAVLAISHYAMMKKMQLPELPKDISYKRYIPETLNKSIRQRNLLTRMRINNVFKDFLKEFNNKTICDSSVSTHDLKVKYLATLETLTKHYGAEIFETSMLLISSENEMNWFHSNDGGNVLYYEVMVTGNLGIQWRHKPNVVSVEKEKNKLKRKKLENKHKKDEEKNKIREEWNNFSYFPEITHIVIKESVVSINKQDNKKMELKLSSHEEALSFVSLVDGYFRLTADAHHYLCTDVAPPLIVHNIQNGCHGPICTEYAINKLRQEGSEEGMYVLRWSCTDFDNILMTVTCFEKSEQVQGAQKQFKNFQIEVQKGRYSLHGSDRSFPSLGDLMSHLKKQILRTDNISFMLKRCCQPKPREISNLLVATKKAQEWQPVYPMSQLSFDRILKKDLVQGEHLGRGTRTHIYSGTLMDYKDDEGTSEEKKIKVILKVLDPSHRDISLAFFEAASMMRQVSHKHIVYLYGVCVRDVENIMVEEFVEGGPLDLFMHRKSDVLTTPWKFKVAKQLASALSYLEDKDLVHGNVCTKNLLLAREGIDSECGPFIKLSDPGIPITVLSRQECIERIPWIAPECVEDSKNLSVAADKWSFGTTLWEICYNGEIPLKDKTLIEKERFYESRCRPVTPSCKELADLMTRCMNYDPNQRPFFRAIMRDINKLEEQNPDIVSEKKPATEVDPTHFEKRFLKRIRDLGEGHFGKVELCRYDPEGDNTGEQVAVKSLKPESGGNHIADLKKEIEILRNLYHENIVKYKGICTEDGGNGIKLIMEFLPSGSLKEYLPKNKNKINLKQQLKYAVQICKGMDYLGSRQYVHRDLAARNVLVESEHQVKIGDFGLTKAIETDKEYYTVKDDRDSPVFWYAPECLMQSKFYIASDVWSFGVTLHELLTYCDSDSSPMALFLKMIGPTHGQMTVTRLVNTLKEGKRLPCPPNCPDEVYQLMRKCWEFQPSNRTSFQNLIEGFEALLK
pKd: −log10 of the molar value.
property.name: pKd

COc1cc2c(-c3cnc(-c4ccc[nH]4)o3)c[nH]c2cc1Br : 6.00

* * *

biological target: Mitogen-activated protein kinase 15 (Homo sapiens, UniProt Q8TD08); experiment: Inhibition of ERK8 (unknown origin) by [33P]-ATP filter binding kinase assay
Sequence (Q8TD08 whole entry): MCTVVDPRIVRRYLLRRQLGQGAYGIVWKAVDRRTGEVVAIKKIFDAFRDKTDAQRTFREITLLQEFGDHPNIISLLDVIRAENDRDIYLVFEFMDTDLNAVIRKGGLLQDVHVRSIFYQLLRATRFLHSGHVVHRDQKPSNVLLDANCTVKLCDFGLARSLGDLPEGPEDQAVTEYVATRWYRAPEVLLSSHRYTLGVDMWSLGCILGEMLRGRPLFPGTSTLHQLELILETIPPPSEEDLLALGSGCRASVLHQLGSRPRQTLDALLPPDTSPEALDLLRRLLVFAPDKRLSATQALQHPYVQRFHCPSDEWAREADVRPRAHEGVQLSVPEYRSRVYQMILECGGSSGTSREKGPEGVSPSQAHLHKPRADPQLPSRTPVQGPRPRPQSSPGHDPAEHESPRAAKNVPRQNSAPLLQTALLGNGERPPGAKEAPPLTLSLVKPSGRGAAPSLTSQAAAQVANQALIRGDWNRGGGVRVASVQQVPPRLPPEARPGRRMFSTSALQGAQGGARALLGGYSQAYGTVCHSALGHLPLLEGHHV
Listed below: IC50 values for each entry.
property.name: IC50

COc1cc(Br)cc2[nH]cc(-c3cnc(-c4ccc(Br)[nH]4)o3)c12 : > 10 µM
COc1cc(Br)cc2[nH]c(I)c(-c3cnc(-c4ccc[nH]4)o3)c12 : > 10 µM
COc1cc(Br)cc2[nH]cc(-c3cnc(-c4ccc[nH]4)o3)c12 : 46 µM
COc1cc(Br)cc2[nH]cc(-c3oc(-c4ccc[nH]4)nc3I)c12 : > 10 µM
COc1cc2c(-c3cnc(-c4ccc[nH]4)o3)c[nH]c2cc1Br : 1 µM
COc1cc(Br)cc2[nH]cc(-c3cnc(-c4cc(Br)c[nH]4)o3)c12 : > 10 µM

* * *

experiment: Toxicity in zebrafish embryos assessed as survival at 0.1 uM after 72 hrs (reference value: 95%); parameters: species or system Danio rerio; conditions: in vivo
property.name: survival at 72 h, 0.1 µM

COc1cc2c(-c3cnc(-c4ccc[nH]4)o3)c[nH]c2cc1Br : 100%

* * *

molecular target: UniProtKB Q9Y616; experiment: Binding affinity to wild-type human partial length IRAK3 (V147 to E596 residues) expressed in bacterial expression system by active-site directed competition binding assay based Kinomescan method
Sequence (Q9Y616 whole entry, the tested form may be a part): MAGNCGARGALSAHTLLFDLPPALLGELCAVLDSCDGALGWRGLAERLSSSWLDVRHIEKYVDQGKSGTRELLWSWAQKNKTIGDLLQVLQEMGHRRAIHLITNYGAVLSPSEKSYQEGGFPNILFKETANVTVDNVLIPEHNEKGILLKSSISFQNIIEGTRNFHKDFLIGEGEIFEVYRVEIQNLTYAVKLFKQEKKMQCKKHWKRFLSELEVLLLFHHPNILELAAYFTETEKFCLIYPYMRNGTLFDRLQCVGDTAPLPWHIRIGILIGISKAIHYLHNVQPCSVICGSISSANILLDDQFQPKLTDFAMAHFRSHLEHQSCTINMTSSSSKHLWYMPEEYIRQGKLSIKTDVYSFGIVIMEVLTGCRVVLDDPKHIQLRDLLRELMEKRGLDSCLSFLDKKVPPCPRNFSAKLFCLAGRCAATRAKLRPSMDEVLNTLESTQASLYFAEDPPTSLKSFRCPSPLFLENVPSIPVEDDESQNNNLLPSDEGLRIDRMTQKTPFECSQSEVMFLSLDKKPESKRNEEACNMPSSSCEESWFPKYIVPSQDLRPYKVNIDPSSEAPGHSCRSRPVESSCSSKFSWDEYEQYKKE
property.name: Kd (µM)

COc1cc2c(-c3cnc(-c4ccc[nH]4)o3)c[nH]c2cc1Br : 1.7

* * *

Listed below: pIC50 values for each entry.
Target: Mitogen-activated protein kinase kinase kinase kinase 2 (Homo sapiens, UniProt Q12851)
Sequence (Q12851 whole entry): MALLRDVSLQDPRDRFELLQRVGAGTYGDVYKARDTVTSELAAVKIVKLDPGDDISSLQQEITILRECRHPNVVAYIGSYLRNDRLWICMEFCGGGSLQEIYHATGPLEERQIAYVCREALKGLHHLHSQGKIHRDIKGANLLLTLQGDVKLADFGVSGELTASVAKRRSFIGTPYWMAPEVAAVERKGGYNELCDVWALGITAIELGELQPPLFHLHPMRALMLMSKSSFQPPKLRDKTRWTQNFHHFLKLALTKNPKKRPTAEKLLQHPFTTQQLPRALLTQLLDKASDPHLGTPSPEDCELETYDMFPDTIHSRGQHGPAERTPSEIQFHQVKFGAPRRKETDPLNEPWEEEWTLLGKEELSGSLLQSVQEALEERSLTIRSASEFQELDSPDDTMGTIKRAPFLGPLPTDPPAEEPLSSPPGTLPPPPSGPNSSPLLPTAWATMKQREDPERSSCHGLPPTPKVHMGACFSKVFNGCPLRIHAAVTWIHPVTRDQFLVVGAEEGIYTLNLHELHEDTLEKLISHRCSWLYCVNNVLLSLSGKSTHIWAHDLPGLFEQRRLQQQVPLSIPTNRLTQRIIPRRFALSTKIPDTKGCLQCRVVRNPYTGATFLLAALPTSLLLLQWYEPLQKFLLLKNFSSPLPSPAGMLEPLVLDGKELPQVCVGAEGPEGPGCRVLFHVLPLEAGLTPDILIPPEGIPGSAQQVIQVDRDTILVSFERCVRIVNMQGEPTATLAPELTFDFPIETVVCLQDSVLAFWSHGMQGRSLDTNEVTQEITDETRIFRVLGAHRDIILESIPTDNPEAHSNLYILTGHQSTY
Test: Inhibition of GCK (unknown origin) by [33P]-ATP filter binding kinase assay
pIC50: −log10 of the molar value.
property.name: pIC50

COc1cc(Br)cc2[nH]cc(-c3oc(-c4ccc[nH]4)nc3I)c12 : < 5.00
COc1cc(Br)cc2[nH]cc(-c3cnc(-c4ccc(Br)[nH]4)o3)c12 : < 5.00
COc1cc(Br)cc2[nH]cc(-c3cnc(-c4cc(Br)c[nH]4)o3)c12 : < 5.00
